Test: qHTS assay to identify small molecule antagonists of the constitutive androstane receptor (CAR) signaling pathway - cell viability counter screen (AID 1224837); also: nearly all actives have a fitted effect of over 45% in size
Details: HepG2-CYP2B6-hCAR viability, CellTiter-Fluor, 23 h, co-treated with 50 nM CITCO; series mostly up to 92.4 µM
Procedure: National Center for Advancing Translational Sciences [NCATS] NIH Chemical Genomics Center [NCGC] U.S. Environmental Protection Agency [EPA] National Institutes of Environmental Health Sciences [NIEHS] National Toxicology Program [NTP] […] A double-stable (hCAR and CYP2B6-2.2kb) transfected cell line, derived from human hepatoma (HepG2) cells, was utilized for the duration of the quantitative high-throughput screens. […] The fluorescence intensity in the plates was then measured using a ViewLux plate reader.
Inconclusive results are not listed. Active and inactive are the calls of the source. Calls follow the shape of the dose curve; as a rule, active = well fitted cell-killing curve with a large enough effect in the repeat runs; inconclusive = weak or mixed curves, or effect the other way; inactive = flat fitted curve, though single readings scatter.
Choose the fitting class; nothing outside active, inactive is accepted.

# example entries with known answers
Please state the recorded outcome for this compound: C[C@]12CCC(=O)C=C1CC[C@@H]1[C@@H]2[C@@H](O)C[C@@]2(C)[C@H]1CC[C@]2(O)C(=O)COC(=O)CCC(=O)O
inactive

Please state the recorded outcome for this compound: CC(C)c1ccc2c(c1)CC[C@H]1[C@](C)(CN)CCC[C@]21C
active

Please state the recorded outcome for this compound: C/C(=C(/OCCOc1ccc(Cl)cc1)c1ccc(Cl)cc1Cl)n1ccnc1
inactive

Please state the recorded outcome for this compound: CCOC(=O)O[C@H](C)OC(=O)c1ccc2c(c1)cc(C(=O)NC1CCN(C(C)C)CC1)n2Cc1cc(-c2ccc(Cl)s2)on1
active

Please state the recorded outcome for this compound: Oc1ccc2cc(SSc3ccc4cc(O)ccc4c3)ccc2c1
inactive

---
Please state the recorded outcome for this compound: Oc1ccc2c(c1)-c1ccccc1C2
inactive

Please state the recorded outcome for this compound: CN(C)[C@@H]1C(=O)C(C(N)=O)=C(O)[C@@]2(O)C(=O)C3=C(O)c4c(O)ccc(Cl)c4[C@@H](O)[C@H]3C[C@@H]12
inactive

Please state the recorded outcome for this compound: CC1(C)CCC(C)(C)c2cc(C(=O)Nc3ccc(C(=O)O)cc3)ccc21
inactive

Please state the recorded outcome for this compound: CN1CCN(CCC(=O)N2c3ccccc3Sc3ccc(C(F)(F)F)cc32)CC1
inactive
